The measured values listed here are drawn from paper PMC8035703.

assay: Organ distribution of regorafenib in rats with or without RT; assay type: in vivo, Sprague-Dawley rats; conditions: Sprague-Dawley, rat, spleen, oral, 16 mg/kg, rat, 4 h after oral administration; RT2 Gy × 3 f'x followed by regorafenib 16 mg/kg × 3 d (sequential); read-out: Concentration in spleen
readout type: concentration at 4 h
Write down the value, and be sure its unit follows.

Asked: Data request, read-out concentration at 4 h, for CNC(=O)c1cc(Oc2ccc(NC(=O)Nc3ccc(Cl)c(C(F)(F)F)c3)c(F)c2)ccn1
Given back: 410 ng/g

----------
assay: Organ distribution of regorafenib in rats with or without RT; format: in vivo, Sprague-Dawley rats; conditions: Sprague-Dawley, rat, brain, oral, 16 mg/kg, rat, 4 h after oral administration; RT2 Gy × 3 f'x followed by regorafenib 16 mg/kg × 3 d (sequential); read-out: Concentration in brain
readout type: concentration at 4 h (ng/g)
Give a bare numeral; the unit ng/g is implied.

Asked: Data request, read-out concentration at 4 h, for CNC(=O)c1cc(Oc2ccc(NC(=O)Nc3ccc(Cl)c(C(F)(F)F)c3)c(F)c2)ccn1
Given back: 30
